- Test Details: compound binding in COS7 lysate, probe aLAP1, primary screen, cell lysate, small-molecule microarray (AID 1124);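 also: lysate comes from COS7 cells expressing LAP1 and is applied at 0.3 µg/mL; score merges spot fluorescence near 667 nm with signal-to-noise over triplicate slides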
- Stated Conditions: probe aLAP1, fluorescence, higher = more signal
Documented composite z-score across a set of compounds
# print the numeric value only

[[record]]
compound = "Cc1ccc(S[C@]2(C(=O)O)CC(=O)N(Cc3cc(C(F)(F)F)cc(C(F)(F)F)c3)[C@@H]2c2ccc(CO)cc2I)cc1"
measured_quantity = "composite z-score"
result_number = -0.439

[[record]]
compound = "[N-]=[N+]=NCc1ccccc1[C@H]1OC(c2ccc(OCCCO)cc2)=N[C@@]1(Cc1ccccc1N=[N+]=[N-])C(=O)NCc1ccccc1"
measured_quantity = "composite z-score"
result_number = 0.174

[[record]]
compound = "CO[C@@H]1COC(=O)[C@H](C)NC(=O)CC=C[C@@H](C)[C@H](NS(=O)(=O)c2ccc(C)cc2)COC(=O)CC=C[C@@H]1C"
measured_quantity = "composite z-score"
result_number = -0.319

[[record]]
compound = "COc1ccc([Si](C)(C)[C@@H]2[C@@H](CCO)O[C@]3(C(=O)N(Cc4ccc(NC(=O)[C@H](C)O)cc4)c4ccccc43)[C@H]2C)cc1"
measured_quantity = "composite z-score"
result_number = -0.0561

[[record]]
compound = "Cc1ccc(N2C(=O)c3ccccc3[C@@H](C(=O)NCc3ccccc3)[C@@H]2c2ccc(CO)cc2)nc1"
measured_quantity = "composite z-score"
result_number = -0.0641


Problem: May I ask what composite z-score has been recorded for `COC(=O)c1c(CC[C@@H](CO)NC(=O)N[C@H](Cn2cc(-c3cncn3C)nn2)C(C)C)oc(C(C)=O)c1C(=O)OC` ?
Solution: 0.203

Problem: Given the entry O=C1OCC=C[C@H]2OC34C=CCN(Cc5ccccc5)C(=O)[C@H]3N(CCCCCO)C(=O)[C@@H]4[C@@H]12 (some centres not stated) , report its measured composite z-score.
Solution: -0.493

Problem: Sample `CO[C@@H]1COC(=O)[C@@H]2CCCN2C(=O)CC=C[C@@H](C)[C@H](OC)COC(=O)[C@@H]2CCCN2C(=O)CC=C[C@H]1C` — what was its composite z-score?
Solution: 0.169

Problem: Fill blank: measured composite z-score of the compound `O=C1c2ccccc2[C@](Cc2ccccc2I)(C(=O)NCc2ccccc2)[C@H](c2ccc(CO)cc2)N1Cc1ccccc1C(F)(F)F` is ____.
Solution: 0.595

Problem: // composite z-score lookup, key: CN(C)c1ccc(C(O)C2C=CC3C(=O)NC(=O)C3N2Nc2ccc(Cl)cc2Cl)cc1 (configuration not stated)
Solution: 0.305

Problem: What value of composite z-score has been recorded for this entry: `O=C(O)[C@@H]1Cc2c([nH]c3ccccc23)[C@@H](c2ccccc2)N1`
Solution: -0.0124

Problem: composite z-score for `CO[C@H]1COC(=O)CC=C[C@H](C)COC(=O)[C@@H](OCc2ccccc2)C=C[C@@H]1C` ?
Solution: 0.0842

###

Collected z-score values appear next to each entry.
- Test Details: CREB reporter modulators under forskolin, primary screen, cell-based, PC12, CRE-LacZ reporter, forskolin-stimulated (AID 1146);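 also: PC12 cells with 6xCRE LacZ reporter stimulated by forskolin 10 µM; beta-galactosidase reporter signal reflecting CREB driven transcription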
- Stated Conditions: luminescence, 4.5 h, higher = more signal, called active from +8 up or from −8 down
Returns: the value as a bare number; no unit string appended.

The examples below pair each entry with its known result.
[[record]]
compound = "CCCC=C(CCC)[C@@H](NC(=O)c1ccc(C(F)(F)F)cc1)c1ccccc1"
result_number = -0.0536

[[record]]
compound = "CCCCCCc1nc(-c2cc(C)c(OC)c(C)c2)cc2c1[Si](C(C)C)(C(C)C)O[C@H]2c1ccccc1"
result_number = -0.272

[[record]]
compound = "C=CCC(OC(C)=O)[C@@H]1[C@@H](N(Cc2cc3ccccc3o2)C(=O)c2ccc(C)cc2)c2cc(OCCCO)ccc2N1C(=O)c1ccc2ccccc2n1 (stereo partly drawn)"
result_number = -0.273

[[record]]
compound = "C[C@]1(C(=O)NCc2ccccc2)c2ccccc2C(=O)N(Cc2cc(C(F)(F)F)cc(C(F)(F)F)c2)[C@H]1c1ccc(CO)cc1"
result_number = -1.41

[[record]]
compound = "O=C(NCc1ccccc1)[C@@]1(CCS(=O)(=O)c2ccccc2)COC(c2ccc(OCCCO)cc2)=N1"
result_number = -2.67

[[record]]
compound = "O=C1O[C@@H](c2ccccc2)[C@@H](c2ccccc2)N2[C@@H](c3ccc(O)cc3)[C@]3(C(=O)Nc4ccc(C#CC5(O)CCCCCC5)cc43)[C@@H](C(=O)Nc3nc4ccccc4s3)[C@H]12"
result_number = -0.908

[[record]]
compound = "C=C(COC)/C(=C/C[C@@H](OC(=O)c1ccncc1)c1ccc(OCCO)cc1)c1cc(C(=O)OC)ccc1OC"
result_number = -2.02

[[record]]
compound = "CSCC[C@@H]1NC(=O)CC=C[C@@H](C)COC(=O)[C@H](CCSC)NC(=O)CC=C[C@@H](C)COC1=O"
result_number = -0.837

[[record]]
compound = "CCN1C(C)=C(C(=O)OC)[C@@H](c2ccccc2)N2C(=O)[C@@]3(C(=O)OC)O[C@@]12[C@@H]1C(=O)CCC[C@@H]13"
result_number = -0.51

[[record]]
compound = "C[C@H]1COC(=O)[C@@H]2CCCN2C(=O)[C@@H](C)COC(=O)[C@@H]2CCCN2C1=O"
result_number = -0.881


Problem: Would you kindly share the measured z-score for `CCOC(=O)C[C@H]1[C@H](OC(=O)c2ccccc2-c2ccccc2)[C@@H](NC(=O)C2CCCCC2)c2cc(OCCCO)ccc2N1C(=O)c1ccccc1` ?
Solution: -0.278

Problem: May I ask what z-score has been recorded for `COC(=O)[C@@]1(Cc2ccc(OC)cc2)[C@H]2c3cc(C(=O)N(C)C)n(CCc4ccc(OC)c(Br)c4)c3C[C@H]2CN1C(=O)c1ccccc1` ?
Solution: 0.0318

Just for reference, PubChem BioAssay is where these values come from.
